# Test system: Cullin-3 (CUL3) neddylation
# assay.protocol: AlphaLISA assay for Cullin-3 (CUL3) neddylation in TF 1 cells
# Type: cell-based
# condition.description: Homo sapiens, TF-1, 3 h, 3 hours treatment
parameter.measured: IC50

# input Returns the measured IC50 for the input molecule. Input: C=C(CN1C2COCC1C2)C(=O)NCc1nn(-c2ccccc2)c2c1[C@H](c1ccc(F)cc1)[C@H](NC(=O)c1cccc(C(F)(F)F)c1)C(=O)N2CC (mixture of isomers)
# output ≤ 100 nM

# input Returns the measured IC50 for the input molecule. Input: CCN1C(=O)[C@@H](NC(=O)c2cccc(C(F)(F)F)c2)[C@@H](C2CC2)c2c(C(=O)N3CCN(C)C[C@@H]3C#N)nn(C3CCOCC3)c21 (single isomer, unassigned)
# output 100 to 1000 nM

# input Returns the measured IC50 for the input molecule. Input: CCN1C(=O)[C@@H](NC(=O)c2ccc3nonc3c2)[C@@H](C2CC2)c2c(C(=O)N3[C@H](C#N)C[C@H]4C[C@H]43)nn(C3CCOCC3)c21
# output 100 to 1000 nM

# input Returns the measured IC50 for the input molecule. Input: CCN1C(=O)[C@@H](NC(=O)c2cccc(C(F)(F)F)c2)[C@@H](C2CCCC2)c2c(C(=O)N3[C@H](C#N)C[C@H]4C[C@H]43)nn(C3CCOCC3)c21
# output ≤ 100 nM

# input Returns the measured IC50 for the input molecule. Input: CCN1C(=O)[C@@H](NC(=O)c2cccc(C(F)(F)F)c2)[C@@H](c2ccc(F)cc2)c2c(C(=O)N3CC[C@@H]3C#N)nn(-c3ccccc3)c21
# output 100 to 1000 nM

# input Returns the measured IC50 for the input molecule. Input: CCN1C(=O)[C@@H](NC(=O)c2cccc(C(F)(F)F)c2)[C@@H](C2CC2)c2c(C(=O)N3[C@@H]4C[C@@H]4C[C@@H]3C#N)nn(C3CCOCC3)c21
# output > 1000 nM

# input Returns the measured IC50 for the input molecule. Input: CCN1C(=O)[C@@H](NC(=O)c2cccc(C(F)(F)F)c2)[C@@H](c2ccc(F)cc2)c2c(C(=O)N3CCC[C@H]3C#N)nn(-c3cccc(OCCN4CCC5(CC4)COC5)c3)c21
# output ≤ 100 nM

# input Returns the measured IC50 for the input molecule. Input: CCN1C(=O)[C@H](NC(=O)c2cccc(C(F)(F)F)c2)[C@H](c2ccc(F)cc2)c2c(C(=O)N3CCOCC3C#N)nn(-c3ccccc3)c21 (single isomer, unassigned)
# output ≤ 100 nM

# input Returns the measured IC50 for the input molecule. Input: CCN1C(=O)[C@@H](NC(=O)c2cccc(C(F)(F)F)c2)[C@@H](C2CC2)c2c(C(=O)N3[C@H](C#N)C[C@H]4C[C@H]43)nn(C3CCOCC3)c21
# output ≤ 100 nM

# input Returns the measured IC50 for the input molecule. Input: CCN1C(=O)[C@@H](NC(=O)N2CCC[C@H](C(F)(F)F)C2)[C@@H](c2ccc(F)cc2)c2c(C(=O)N3CCC[C@H]3C#N)nn(-c3ccccc3)c21 (single isomer, unassigned)
# output > 1000 nM

----------
# System: Cullin-3 (CUL3) neddylation
# assay.protocol: AlphaLISA assay for Cullin-3 (CUL3) neddylation in TF 1 cells
# Assay type: cell-based
# condition.description: Homo sapiens, TF-1, 3 h, 3 hours treatment
parameter.measured: IC50

# input Returns the measured IC50 for the input compound. Input: CCN1C(=O)[C@@H](NC(=O)c2cccc(C(F)(F)F)c2)[C@@H](c2ccc(F)cc2)c2c(C(=O)N(C)[C@H](C#N)CCN3CC4CC(C3)O4)nn(-c3ccccc3)c21
# output ≤ 100 nM

# input Returns the measured IC50 for the input compound. Input: CCN1C(=O)[C@@H](NC(=O)c2cccc(C(F)(F)F)c2)[C@@H](c2ccc(F)cc2)c2c(C(=O)N3C[C@H](NC)C[C@H]3C#N)nn(C3CCOCC3)c21 (mixture of isomers)
# output ≤ 100 nM

# input Returns the measured IC50 for the input compound. Input: CCN1C(=O)[C@@H](NC(=O)c2cccc(C(F)(F)F)c2)[C@@H](c2ccc(F)cc2)c2c(CNC(=O)/C=C/C(=O)OC)nn(-c3ccccc3)c21 (racemic)
# output ≤ 100 nM
